Biological target: human Dopamine D2L receptor (Homo sapiens)
Construct: expressed in transfected cells; host or cells: CHO-K1
Sequence (P14416 whole entry): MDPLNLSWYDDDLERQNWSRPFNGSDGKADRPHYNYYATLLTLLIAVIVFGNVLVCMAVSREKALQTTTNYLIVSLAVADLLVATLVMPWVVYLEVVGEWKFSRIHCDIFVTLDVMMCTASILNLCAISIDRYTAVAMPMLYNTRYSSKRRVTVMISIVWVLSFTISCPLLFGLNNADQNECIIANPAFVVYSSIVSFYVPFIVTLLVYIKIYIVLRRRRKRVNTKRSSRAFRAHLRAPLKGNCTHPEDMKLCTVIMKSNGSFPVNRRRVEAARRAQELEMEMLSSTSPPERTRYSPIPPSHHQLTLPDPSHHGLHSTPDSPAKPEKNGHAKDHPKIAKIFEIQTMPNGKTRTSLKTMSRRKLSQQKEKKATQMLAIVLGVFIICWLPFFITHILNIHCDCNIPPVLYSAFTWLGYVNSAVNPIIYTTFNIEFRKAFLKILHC
Test: cAMP HTRF functional assay (agonist/antagonist)
Assay type: cell-based
metricName: EC50
Please don't drop the unit; write it after the number.

In plain terms, CN1C[C@H](C(=O)N[C@]2(C)O[C@@]3(O)[C@@H]4CCCN4C(=O)[C@H](Cc4ccccc4)N3C2=O)C[C@@H]2c3cccc4[nH]cc(c34)C[C@H]21 [DHE, Dihydroergotamine] has a documented EC50 of 835 pM

* * *

Target: human 5-HT2B receptor (Homo sapiens, UniProt P41595)
Construct: purchased Euroscreen; host or cells: CHO-K1
Sequence (P41595 whole entry): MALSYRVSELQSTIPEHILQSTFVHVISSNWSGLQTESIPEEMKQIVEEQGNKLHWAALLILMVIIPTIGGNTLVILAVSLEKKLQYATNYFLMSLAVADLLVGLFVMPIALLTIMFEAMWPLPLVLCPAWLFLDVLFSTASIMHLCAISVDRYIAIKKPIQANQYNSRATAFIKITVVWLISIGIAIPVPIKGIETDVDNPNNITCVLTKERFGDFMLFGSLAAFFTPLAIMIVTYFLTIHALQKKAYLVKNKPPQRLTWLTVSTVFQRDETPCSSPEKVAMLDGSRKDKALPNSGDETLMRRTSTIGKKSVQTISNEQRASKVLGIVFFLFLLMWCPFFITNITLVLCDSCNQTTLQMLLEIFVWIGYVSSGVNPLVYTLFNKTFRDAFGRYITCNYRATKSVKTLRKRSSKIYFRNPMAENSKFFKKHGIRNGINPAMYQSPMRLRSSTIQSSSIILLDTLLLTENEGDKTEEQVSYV
Assay: Radioligand competition binding and kinetics, CHO-K1 membranes
metricName: IC50
Please don't drop the unit; write it after the number.

Assay human 5-HT2B receptor (Homo sapiens, UniProt P41595), sample CN1C[C@H](C(=O)N[C@]2(C)O[C@@]3(O)[C@@H]4CCCN4C(=O)[C@H](Cc4ccccc4)N3C2=O)C[C@@H]2c3cccc4[nH]cc(c34)C[C@H]21 [DHE, Dihydroergotamine] , IC50 read: 12.9 nM

* * *

Target: human Adrenergic α1D receptor (Homo sapiens, UniProt P25100)
Construct: expressed in transfected cells; host or cells: CHO-K1 or HEK-293, coexpressing mitochondrial apoaequorin
Sequence (P25100 whole entry): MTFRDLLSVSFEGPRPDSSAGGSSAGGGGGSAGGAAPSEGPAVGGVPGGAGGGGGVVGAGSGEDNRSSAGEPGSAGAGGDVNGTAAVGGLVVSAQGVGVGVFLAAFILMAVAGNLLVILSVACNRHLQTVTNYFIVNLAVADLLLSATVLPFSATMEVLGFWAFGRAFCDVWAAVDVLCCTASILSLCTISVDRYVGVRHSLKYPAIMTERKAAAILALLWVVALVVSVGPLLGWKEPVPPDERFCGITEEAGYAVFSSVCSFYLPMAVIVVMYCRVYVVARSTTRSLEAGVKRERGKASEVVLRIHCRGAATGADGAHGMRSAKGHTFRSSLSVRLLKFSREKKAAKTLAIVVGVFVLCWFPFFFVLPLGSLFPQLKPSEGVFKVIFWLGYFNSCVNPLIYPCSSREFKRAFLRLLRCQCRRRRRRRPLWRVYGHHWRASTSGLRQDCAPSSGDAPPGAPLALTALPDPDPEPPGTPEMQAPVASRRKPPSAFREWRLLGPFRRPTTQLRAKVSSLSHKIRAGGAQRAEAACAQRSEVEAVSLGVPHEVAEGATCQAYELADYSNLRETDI
Experiment: Aequorin functional assay (agonist/antagonist)
Format: cell-based
metricName: pIC50
By convention, pIC50 is the negative base-10 log of a molar concentration.

Assay human Adrenergic α1D receptor (Homo sapiens, UniProt P25100), sample CN1C[C@H](C(=O)N[C@]2(C)O[C@@]3(O)[C@@H]4CCCN4C(=O)[C@H](Cc4ccccc4)N3C2=O)C[C@@H]2c3cccc4[nH]cc(c34)C[C@H]21 [DHE, Dihydroergotamine] , pIC50 read: 8.88

* * *

Measured IC50, listed per entry for reference.
Biological target: human 5-HT2B receptor (Homo sapiens, UniProt P41595)
Construct: purchased Euroscreen; host or cells: CHO-K1
Assay: Radioligand competition binding and kinetics, CHO-K1 membranes
Details: 5-HT2B, [3H]-Mesulergine; read-out: IC50 from binding assay
# number only, unit µM dropped from output

compound	tgt	IC50 (µM)
CNS(=O)(=O)Cc1ccc2[nH]cc(CCN(C)C)c2c1 [Sumatriptan, sumatriptan]	human 5-HT2B receptor (Homo sapiens, UniProt P41595)	19.9

In plain terms, CN1C[C@H](C(=O)N[C@]2(C)O[C@@]3(O)[C@@H]4CCC(O)N4C(=O)[C@H](Cc4ccccc4)N3C2=O)C[C@@H]2c3cccc4[nH]cc(c34)C[C@H]21 (some centres unmarked) [8′-OH DHE, 8′-Hydroxy-Dihydroergotamine] has a documented IC50 of 0.00773

* * *

Biological target: human Serotonin 5-HT5A receptor (Homo sapiens)
Construct: expressed in transfected cells; host or cells: CHO-K1 or HEK-293, coexpressing mitochondrial apoaequorin
Sequence (P47898 whole entry): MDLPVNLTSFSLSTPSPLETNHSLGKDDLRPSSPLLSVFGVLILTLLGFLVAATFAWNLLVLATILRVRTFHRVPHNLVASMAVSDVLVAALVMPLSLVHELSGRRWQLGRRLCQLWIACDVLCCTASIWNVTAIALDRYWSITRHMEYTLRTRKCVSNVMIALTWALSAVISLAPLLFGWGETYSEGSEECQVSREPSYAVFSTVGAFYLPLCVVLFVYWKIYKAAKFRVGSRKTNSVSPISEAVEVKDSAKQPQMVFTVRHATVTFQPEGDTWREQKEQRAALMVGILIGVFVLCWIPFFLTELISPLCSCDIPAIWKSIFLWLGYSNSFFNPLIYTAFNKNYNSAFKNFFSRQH
Assay: Aequorin functional assay (agonist/antagonist)
Format: cell-based
metricName: IC50 (nM)
# number only, unit nM dropped from output

In plain terms, CN1C[C@H](C(=O)N[C@]2(C)O[C@@]3(O)[C@@H]4CCCN4C(=O)[C@H](Cc4ccccc4)N3C2=O)C[C@@H]2c3cccc4[nH]cc(c34)C[C@H]21 [DHE, Dihydroergotamine] has a documented IC50 of 48.8

* * *

Target: human Serotonin 5-HT4e receptor (Homo sapiens)
Construct: expressed in transfected cells; host or cells: CHO-K1 (transient)
Sequence (Q13639 1-378 isoform Q13639-5): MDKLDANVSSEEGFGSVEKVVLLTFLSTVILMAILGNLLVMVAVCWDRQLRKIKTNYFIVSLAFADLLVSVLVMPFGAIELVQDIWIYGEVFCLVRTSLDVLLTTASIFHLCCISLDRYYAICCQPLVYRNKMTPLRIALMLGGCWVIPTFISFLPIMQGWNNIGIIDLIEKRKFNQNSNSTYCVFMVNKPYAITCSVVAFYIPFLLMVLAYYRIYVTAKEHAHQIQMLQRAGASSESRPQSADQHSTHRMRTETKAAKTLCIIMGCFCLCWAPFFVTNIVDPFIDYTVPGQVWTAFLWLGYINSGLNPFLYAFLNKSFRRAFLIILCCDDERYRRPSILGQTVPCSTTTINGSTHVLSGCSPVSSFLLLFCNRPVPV
Test: cAMP HTRF functional assay (agonist/antagonist)
Format: cell-based
metricName: pEC50
By convention, pEC50 is the negative base-10 log of a molar concentration.

In plain terms, CN1C[C@H](C(=O)N[C@]2(C)O[C@@]3(O)[C@@H]4CCCN4C(=O)[C@H](Cc4ccccc4)N3C2=O)C[C@@H]2c3cccc4[nH]cc(c34)C[C@H]21 [DHE, Dihydroergotamine] has a documented pEC50 of 6.98
